- Study system: His6-AspH315–758 (human aspartate/asparagine-β-hydroxylase, AspH) (Homo sapiens, UniProt Q12797)
- Construct: N-Terminally His6-tagged human AspH315–758 (His6-AspH315–758) was produced in E. coli BL21 (DE3) cells; made in house; host or cells: E. coli BL21 (DE3), pET-28a(+) vector
- Protocol: SPE-MS AspH inhibition assay (LOPAC screen at fixed 20 μM and IC50 dose-response), hydroxylation of cyclic peptide hFX-CP101–119
- Format: biochemical
- Experimental conditions: 20 µM
# % inhibition annotations

Compound	U	% inhibition
O=C(O)[C@H]1CCCN[C@H]1C(=O)O (racemic) [(±)-cis-Piperidine-2,3-dicarboxylic acid]	%	-8.61
CC(=O)OC[C@H]1O[C@@H]([S-])[C@H](OC(C)=O)[C@@H](OC(C)=O)[C@@H]1OC(C)=O.CCP(CC)CC.[Au+]	%	52.32
CCN(CC)CCOc1ccc(Nc2ncc3cc(-c4c(Cl)cccc4Cl)c(=O)n(C)c3n2)cc1.O [PD-166285 hydrate]	%	-42.48
Brc1c(NC2=NCCN2)ccc2nccnc12	%	-9.62
COc1ccc(CCN(C)CCCC(C#N)(c2ccc(OC)c(OC)c2)C(C)C)cc1OC.Cl (racemic) [(±)-Verapamil hydrochloride]	%	-18.08
O=[N+]([O-])c1ccc2c(c1)S(=O)(=O)C=C2	%	5.15
COc1ccccc1N1CCN(CCN(C(=O)C2CCCCC2)c2ccccn2)CC1.O=C(O)/C=C\C(=O)O [WAY-100635 maleate]	%	-17.34

* * *

Measured % conversion of individual entries
- Study system: His6-AspH315–758 (human aspartate/asparagine-β-hydroxylase, AspH) (Homo sapiens, UniProt Q12797)
- Construct: N-Terminally His6-tagged human AspH315–758 (His6-AspH315–758) was produced in E. coli BL21 (DE3) cells; made in house; host or cells: E. coli BL21 (DE3), pET-28a(+) vector
- Protocol: SPE-MS AspH inhibition assay (LOPAC screen at fixed 20 μM and IC50 dose-response), hydroxylation of cyclic peptide hFX-CP101–119
- Type: biochemical

Molecule	% conversion, %
CC[N+](CC)(CC)CC [Tetraethylammonium chloride]	26.96
C[C@]12C=CC(=O)C=C1CC[C@@H]1C2=CC[C@]2(C)[C@@H](C(=O)CN3CCN(c4cc(N5CCCC5)nc(N5CCCC5)n4)CC3)CC[C@@H]12.O=C(O)/C=C\C(=O)O [U-74389G maleate]	25.11
CCCCCCCCCCCCCC(=O)O[C@@H]1[C@@H](C)[C@@]2(O)[C@@H](C=C(CO)C[C@]3(O)C(=O)C(C)=C[C@@H]23)[C@@H]2C(C)(C)[C@]12OC(C)=O [Phorbol 12-myristate 13-acetate]	39.27
C#C[C@]1(O)CC[C@H]2[C@@H]3CCC4=Cc5nc6nc7ccccc7n6cc5C[C@]4(C)[C@H]3CC[C@@]21C	37.03
CC(C)c1cccc(C(C)C)c1N1C(=O)c2ccc(O)cc2C1=O	25.79
CNCC(O)c1ccc(O)cc1 (racemic) [(±)-Synephrine]	25.88
CN(C)C(=O)Oc1ccc[n+](C)c1 [Pyridostigmine bromide]	37.84

* * *

In this section, each of the molecules is paired with its reported Inhibition at 20 µM [%].
- Study system: His6-AspH315–758 (human aspartate/asparagine-β-hydroxylase, AspH) (Homo sapiens, UniProt Q12797)
- Construct: N-Terminally His6-tagged human AspH315–758 (His6-AspH315–758) was produced in E. coli BL21 (DE3) cells; made in house; host or cells: E. coli BL21 (DE3), pET-28a(+) vector
- Sequence (Q12797 315-758): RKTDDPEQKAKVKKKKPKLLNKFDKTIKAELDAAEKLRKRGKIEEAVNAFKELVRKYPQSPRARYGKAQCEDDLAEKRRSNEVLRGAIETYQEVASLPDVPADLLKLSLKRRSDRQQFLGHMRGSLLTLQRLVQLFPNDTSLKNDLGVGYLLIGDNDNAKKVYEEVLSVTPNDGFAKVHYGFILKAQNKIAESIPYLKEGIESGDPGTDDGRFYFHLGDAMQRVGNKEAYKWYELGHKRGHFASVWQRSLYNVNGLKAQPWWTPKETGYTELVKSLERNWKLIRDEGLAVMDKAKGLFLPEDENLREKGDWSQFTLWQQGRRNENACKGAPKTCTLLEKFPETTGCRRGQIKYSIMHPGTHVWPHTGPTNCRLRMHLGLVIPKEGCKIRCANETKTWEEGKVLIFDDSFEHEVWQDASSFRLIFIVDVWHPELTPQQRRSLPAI
- Protocol: SPE-MS AspH inhibition assay (LOPAC screen at fixed 20 μM and IC50 dose-response), hydroxylation of cyclic peptide hFX-CP101–119
- Type: biochemical

Molecule	U	Inhibition at 20 µM [%]
O=C1Nc2ccc(I)cc2/C1=C/c1cc(Br)c(O)c(Br)c1 [GW5074, reference compound]	%	101.1
CC(=O)OCC1=C(C(=O)[O-])N2C(=O)[C@@H](NC(=O)CCC[C@@H](N)C(=O)[O-])[C@H]2SC1.[Zn+2] [cephalosporin C zinc salt, reference compound]	%	98.1
O=C1C=CC(=O)C=C1 [p-Benzoquinone, reference compound]	%	99.3
NC(=O)CI [Iodoacetamide, reference compound]	%	102.0
NC(Cc1cc(O)c(O)cc1O)C(=O)O (racemic) [6-Hydroxy-DL-DOPA, reference compound]	%	103.1
